experimental_target: CTGF (CCN2) (UniProt P29279 27-349)
Sequence (P29279 27-349): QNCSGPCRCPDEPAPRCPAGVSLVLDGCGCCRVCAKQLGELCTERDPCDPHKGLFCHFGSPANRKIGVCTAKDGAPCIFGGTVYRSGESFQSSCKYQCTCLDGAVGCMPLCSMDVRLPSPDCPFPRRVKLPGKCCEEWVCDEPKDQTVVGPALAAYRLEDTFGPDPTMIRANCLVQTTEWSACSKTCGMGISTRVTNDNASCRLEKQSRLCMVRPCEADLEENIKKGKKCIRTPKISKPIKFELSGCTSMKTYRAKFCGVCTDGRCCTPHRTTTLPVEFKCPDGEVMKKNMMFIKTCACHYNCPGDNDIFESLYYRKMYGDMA
assay_protocol: SPR; SPR: PBS running buffer, CTGF on CM5 chip, aptamer 9.375-600 nM, 10 ul/min (SA chip with biotinylated aptamer for cytokines and CTGF deletion mutants); dot blot: nitrocellulose, 10% BSA block, 1 uM biotinylated aptamer, room temperature; pH not stated
particulars: protein: commercial; label: biotin or Cy5 depending on assay
observable: Kd
State the value, then name its unit.

Form field Kd, entry AGGCCGGGAGGGTACCCATTGATGGTGTGATGACTGCCT (ssDNA, 3' PEG (high molecular mass)) [AptW2-1-39-PEG] : 7.86 nM
